B1: Retinoic acid receptor beta, residues 85 to 161; numbered along this chain, P10826 (parent)
chain: YKPCFVCQDKSSGYHYGVSACEGCKGFFRRSIQKNMIYTCHRDKNCVINKVTRNRCQYCRLQKCFEVGMSKESVRND

# Variants of: B1
# assay-info: abundance fitness (aPCA) (normalised: wild type 0, dead -1); higher = more abundant; growth selection in yeast, the domain comes from the species named
# cond: Homo sapiens
abundance fitness of -0.3 or higher: YES. Under -0.3: NO.

Reference set (4 entries):
YKPCFVCQDKSSGYHYGVSACEGCKGFFRRSIQENMIYTCHRDKNCVINKVTRNRCQYCRLQKCFEVGMSKESVRND [K34E] :: YES
YKPCFVCQDKSSGYHYGVSACEGCKGFFRRSIQKIMIYTCHRDKNCVINKVTRNRCQYCRLQKCFEVGMSKESVRND [N35I] :: NO
YKPCFVCQDKSSGYHYGVSACEGCKGFFRRSIQKNMIYTCHRDKNCVINKVTRNRCQYCRLCKCFEVGMSKESVRND [Q62C] :: YES
YKPCFVCQDKSSGYHYGVSACEGCKGFFRRSIQKNMIYTCHRDKNCVLNKVTRNRCQYCRLQKCFEVGMSKESVRND [I48L] :: YES

Is the recorded value of abundance fitness equal to or greater than -0.3 for this variant? YKPCFVCQDKSSGYHYGVSACEGCKGFFRRSIQKNMIYTCHRDKNCVINAVTRNRCQYCRLQKCFEVGMSKESVRND [K50A]
YES

Note, next up: YKPCFVCQDKSTGYHYGVSACEGCKGFFRRSIQKNMIYTCHRDKNCVINKVTRNRCQYCRLQKCFEVGMSKESVRND [S12T]
YES

These data points were gathered from the Human Domainome abundance scans (Beltran et al. 2025).
